tested on: human cervical carcinoma Hela cells; assay: MTT cell viability assay, Hela; format: cell-based; settings: 20 uM, 48 h, read-out: Cell viability as a percentage of the cells treated with DMSO, Hela
READOUT KIND: viability at 20 µM (%)
Report the value in % with no unit label.

Prompt: Provide the documented viability at 20 µM with human cervical carcinoma Hela cells as the system for O=C(OC1CCC2CCCCC2C1)c1ccc([N+](=O)[O-])cc1 (stereo not shown)
Response: 87

Prompt: Could you do the same for O=C(OC1CC2CCC1C2)c1ccc([N+](=O)[O-])cc1 (stereo not shown) , please?
Response: 100

Prompt: Could you do the same for O=C(OC1CCCCCCC1)c1ccc(O)cc1 [XD-10, cyclooctyl 4-hydroxybenzoate] , please?
Response: 90

Prompt: Could you do the same for Cc1cc(C(=O)OC2CCC3CCCCC3C2)ccc1[N+](=O)[O-] (stereo not shown) , please?
Response: 94

Prompt: Could you do the same for Cc1cc(C(=O)OC2CCC3CCCCC3C2)ccc1O (stereo not shown) , please?
Response: 96

Prompt: Could you do the same for Cc1cc(C(=O)OC2CC3CCC2(C)C3(C)C)ccc1N (stereo not shown) , please?
Response: 95

Prompt: Could you do the same for COc1cc(C(=O)OC2CCC3CCCCC3C2)ccc1[N+](=O)[O-] (stereo not shown) , please?
Response: 93

Prompt: Could you do the same for CC1(C)C2CCC1(C)C(OC(=O)c1ccc([N+](=O)[O-])cc1)C2 (stereo not shown) , please?
Response: 90

Prompt: Could you do the same for Nc1ccc(C(=O)OC2CCC3CCCCC3C2)cc1 (stereo not shown) , please?
Response: 100

Prompt: Could you do the same for CC1(C)C2CCC1(C)C(OC(=O)c1ccc(F)cc1)C2 (stereo not shown) , please?
Response: 90

---

biological target: full-length FXR (Homo sapiens); construct: The cells were co-transfected with plasmids encoding full-length FXR and the cognate luciferase reporter EcRE-Luc; expressed in transfected cells; host or cells: COS-7; assay: Cell-based FXR transactivation, EcRE luciferase reporter in COS-7 cells; conditions: 5 μM compound, positive: induction, minus: repression, Table 2
Give Cell-based FXR transactivation Fold changes by 5 μM compound for every item shown.
Please give only the number in your answer, with no unit.

Prompt: Provide the documented Cell-based FXR transactivation Fold changes by 5 μM compound with full-length FXR (Homo sapiens) as the system for CC1(C)C2CCC1(C)C(OC(=O)c1ccc(=O)oc1)C2 (stereo not shown)
Response: 4

Prompt: Could you do the same for CC1(C)C2CCC1(C)C(OC(=O)C1CCC(O)CC1)C2 (stereo not shown) , please?
Response: 6

Prompt: Could you do the same for Cc1cc(C(=O)OC2CCC3CCCCC3C2)ccc1[N+](=O)[O-] (stereo not shown) , please?
Response: 2

Prompt: Could you do the same for Cc1cc(C(=O)OC2CC3CCC2(C)C3(C)C)ccc1[N+](=O)[O-] (stereo not shown) , please?
Response: 3

Prompt: Could you do the same for O=C(OC1CCC2CCCCC2C1)c1ccc([N+](=O)[O-])cc1 (stereo not shown) , please?
Response: −2

Prompt: Could you do the same for Cc1cc(C(=O)OC2CC3CCC2(C)C3(C)C)ccc1F (stereo not shown) , please?
Response: 5

Prompt: Could you do the same for CC1(C)C2CCC1(C)C(OC(=O)c1ccc(F)c(Br)c1)C2 (stereo not shown) , please?
Response: 4

Prompt: Could you do the same for COc1cc(C(=O)OC2CCCCCCC2)ccc1O [XD-18, cyclooctyl 4-hydroxy-3-methoxybenzoate] , please?
Response: 3

---

tested on: human hepatoma HepG2 cells; assay: MTT cell viability assay, HepG2; type: cell-based; settings: 20 uM, 48 h, read-out: Cell viability as a percentage of the cells treated with DMSO, HepG2
READOUT KIND: viability at 20 µM (%)
Report the value in % with no unit label.

Prompt: Would you kindly share the measured viability at 20 µM for COc1cc(C(=O)OC2CCC3CCCCC3C2)ccc1[N+](=O)[O-] (stereo not drawn) [XD-36] ?
Response: 100

Prompt: Could you do the same for CC1(C)C2CCC1(C)C(OC(=O)C1CCC(O)CC1)C2 (stereo not drawn) [XD-20] , please?
Response: 100

Prompt: Could you do the same for Cc1cc(C(=O)OC2CCC3CCCCC3C2)ccc1O (stereo not drawn) [XD-29] , please?
Response: 100

Prompt: Could you do the same for CC1(C)C2CCC1(C)C(OC(=O)c1ccncc1)C2 (stereo not drawn) [XD-6] , please?
Response: 99

Prompt: Could you do the same for O=C(OC1CCCCCCC1)c1ccc(O)cc1 [XD-10, cyclooctyl 4-hydroxybenzoate] , please?
Response: 90

Prompt: Could you do the same for O=C(OC1CCC2CCCCC2C1)c1ccc(F)cc1 (stereo not drawn) [XD-33] , please?
Response: 100

Prompt: Could you do the same for Nc1ccc(C(=O)OC2CCCCCC2)cc1 [XD-12, cycloheptyl 4-aminobenzoate] , please?
Response: 100

Prompt: Could you do the same for CC1(C)[C@@H]2CC[C@@]1(C)[C@@H](OC(=O)c1ccc(O)cc1)C2 [Tschimgine] , please?
Response: 97

Prompt: Could you do the same for O=C(OC1CCCCCCCCCCC1)c1ccc(O)cc1 [XD-11, cyclododecyl 4-hydroxybenzoate] , please?
Response: 100

---

Give fold induction at 5 µM for every item shown.
biological target: full-length FXR (Homo sapiens); construct: The cells were co-transfected with plasmids encoding full-length FXR and the cognate luciferase reporter EcRE-Luc; expressed in transfected cells; host or cells: COS-7; assay: Cell-based FXR transactivation, EcRE luciferase reporter in COS-7 cells; conditions: 5 μM compound, EcRE luciferase reporter, Table 1

Prompt: Would you kindly share the measured fold induction at 5 µM for O=C(OC1CCCCCCC1)c1ccc(O)cc1 [XD-10, cyclooctyl 4-hydroxybenzoate] ?
Response: 8

Prompt: Could you do the same for `COc1ccc(OC(=O)C23CC4CC(CC(Cl)(C4)C2)C3)cc1` , please?
Response: > 10

Prompt: Could you do the same for C/C1=C\CCC(C)(O)/C=C/C(C(C)C)C(OC(=O)c2ccc(O)cc2)C1 (stereo not drawn) , please?
Response: > 10

---

test system: human cervical carcinoma Hela cells; experiment: MTT cell viability assay, Hela; format: cell-based; settings: 20 uM, 48 h, read-out: Cell viability as a percentage of the cells treated with DMSO, Hela
So basically, if viability at 20 µM comes in under 90% it's condition met, and if it's 90% or more it's condition not met.

Prompt: Does this compound meet the criterion viability at 20 µM < 90%? COc1cc(C(=O)OC2CCC3CCCCC3C2)ccc1O (stereo not shown) [XD-30]
Response: condition met

Prompt: Could you do the same for O=C(OC1CCC2CCCCC2C1)c1ccc(F)cc1 (stereo not shown) [XD-33] , please?
Response: condition not met

Prompt: Could you do the same for CC1(C)C2CCC1(C)C(OC(=O)c1ccc(N)cc1)C2 (stereo not shown) [XD-5] , please?
Response: condition not met

Prompt: Could you do the same for COc1cc(C(=O)OC2CCCCCCC2)ccc1O [XD-18, cyclooctyl 4-hydroxy-3-methoxybenzoate] , please?
Response: condition not met

Prompt: Could you do the same for Cc1cc(C(=O)OC2CCC3CCCCC3C2)ccc1N (stereo not shown) [XD-31] , please?
Response: condition met

Prompt: Could you do the same for COc1cc(C(=O)OC2CC3CCC2(C)C3(C)C)ccc1F (stereo not shown) [XD-3] , please?
Response: condition not met

---

Give Cell-based FXR transactivation Fold changes by 5 μM compound for every item shown.
Molecular target: full-length FXR (Homo sapiens, UniProt Q96RI1)
Construct: The cells were co-transfected with plasmids encoding full-length FXR and the cognate luciferase reporter EcRE-Luc; expressed in transfected cells; host or cells: COS-7
Sequence (Q96RI1 1-486): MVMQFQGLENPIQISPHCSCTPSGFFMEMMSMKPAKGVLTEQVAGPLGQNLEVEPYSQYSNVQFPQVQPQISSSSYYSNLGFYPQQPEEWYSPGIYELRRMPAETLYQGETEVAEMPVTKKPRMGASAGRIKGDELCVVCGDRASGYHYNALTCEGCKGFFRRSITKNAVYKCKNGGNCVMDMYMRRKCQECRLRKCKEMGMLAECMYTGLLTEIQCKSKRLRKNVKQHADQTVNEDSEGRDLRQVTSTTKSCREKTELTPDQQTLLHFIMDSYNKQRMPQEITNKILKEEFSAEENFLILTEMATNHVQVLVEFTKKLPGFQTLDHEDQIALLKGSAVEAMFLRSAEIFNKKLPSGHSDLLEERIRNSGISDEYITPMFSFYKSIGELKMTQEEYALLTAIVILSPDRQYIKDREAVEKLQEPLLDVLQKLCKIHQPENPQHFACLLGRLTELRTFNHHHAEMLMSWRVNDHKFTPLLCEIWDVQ
Test: Cell-based FXR transactivation, EcRE luciferase reporter in COS-7 cells
Settings: 5 μM compound, positive: induction, minus: repression, Table 2
Please give only the number in your answer, with no unit.

Prompt: Would you kindly share the measured Cell-based FXR transactivation Fold changes by 5 μM compound for Cc1cc(C(=O)OC2CCCCCCC2)ccc1O [XD-17, cyclooctyl 4-hydroxy-3-methylbenzoate] ?
Response: 3

Prompt: Could you do the same for COc1cc(C(=O)OC2CCC3CCCCC3C2)ccc1[N+](=O)[O-] (stereo not shown) , please?
Response: 3

Prompt: Could you do the same for COc1cc(C(=O)OC2CCC3CCCCC3C2)ccc1N (stereo not shown) , please?
Response: −5

Prompt: Could you do the same for COc1cc(C(=O)OC2CCC3CCCCC3C2)ccc1O (stereo not shown) , please?
Response: 3

Prompt: Could you do the same for COc1cc(C(=O)OC2CC3CCC2(C)C3(C)C)ccc1F (stereo not shown) , please?
Response: 5

Prompt: Could you do the same for CC1(C)C2CCC1(C)C(OC(=O)c1ccc(F)cc1)C2 (stereo not shown) , please?
Response: 5

Prompt: Could you do the same for Nc1ccc(C(=O)OC2CCCCCCC2)cc1 [XD-16, cyclooctyl 4-aminobenzoate] , please?
Response: 5
